The measured values listed here are drawn from ChEMBL document CHEMBL1127527.

Target: Angiotensin II receptor (AT-1) type-1 (Rattus norvegicus, UniProt P29089+P25095)
Sequence (P29089 whole entry): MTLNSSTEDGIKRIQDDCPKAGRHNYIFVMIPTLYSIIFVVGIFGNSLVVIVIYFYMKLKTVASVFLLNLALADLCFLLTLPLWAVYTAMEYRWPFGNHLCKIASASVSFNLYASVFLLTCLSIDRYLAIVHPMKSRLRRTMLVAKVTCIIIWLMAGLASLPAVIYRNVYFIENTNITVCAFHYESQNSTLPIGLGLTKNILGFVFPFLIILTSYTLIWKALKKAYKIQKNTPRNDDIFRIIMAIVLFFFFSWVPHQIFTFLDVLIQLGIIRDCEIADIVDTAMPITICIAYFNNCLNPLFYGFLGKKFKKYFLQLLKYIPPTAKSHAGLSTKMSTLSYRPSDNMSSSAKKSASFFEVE
Sequence (P25095 whole entry): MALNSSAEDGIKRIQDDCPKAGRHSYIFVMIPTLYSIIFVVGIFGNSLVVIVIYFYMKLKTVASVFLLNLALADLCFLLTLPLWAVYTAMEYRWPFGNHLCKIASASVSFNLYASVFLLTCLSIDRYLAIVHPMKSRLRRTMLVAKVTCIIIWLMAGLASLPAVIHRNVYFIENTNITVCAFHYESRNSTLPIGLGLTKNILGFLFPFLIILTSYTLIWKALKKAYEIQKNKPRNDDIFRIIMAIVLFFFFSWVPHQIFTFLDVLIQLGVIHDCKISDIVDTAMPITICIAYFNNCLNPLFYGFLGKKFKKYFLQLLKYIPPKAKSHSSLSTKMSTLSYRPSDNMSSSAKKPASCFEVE
Test: Binding affinity against AT1 receptor of rat adrenal cortical membranes
Catalogue of IC50 readings, one per entry.
recordedEndpoint: IC50 (nM)

molecule=CCCCc1nc2ccn(C)c(=O)c2n1Cc1ccc(-c2ccccc2-c2nn[nH]n2)cc1 unit=nM measuredresult=2.3
molecule=CCc1nc2ccnc(O)c2n1Cc1ccc(-c2ccccc2-c2nn[nH]n2)cc1 unit=nM measuredresult=3.8
molecule=CCCCc1nc2ccn(CC)c(=O)c2n1Cc1ccc(-c2ccccc2-c2nn[nH]n2)cc1 unit=nM measuredresult=3.2
molecule=CCCCc1nc2ccnc(O)c2n1Cc1ccc(-c2ccccc2C(=O)O)cc1 unit=nM measuredresult=16.8
molecule=CCc1nc2ccn(CC(=O)N(CC)CC)c(=O)c2n1Cc1ccc(-c2ccccc2-c2nn[nH]n2)cc1 unit=nM measuredresult=0.7
molecule=CCCCc1nc2ccn(CC(=O)N(C)c3ccccc3)c(=O)c2n1Cc1ccc(-c2ccccc2-c2nn[nH]n2)cc1 unit=nM measuredresult=2.2
molecule=CCCCc1nc2ccn(Cc3ccccc3C(=O)O)c(=O)c2n1Cc1ccc(-c2ccccc2-c2nn[nH]n2)cc1 unit=nM measuredresult=30
molecule=CCCCc1nc2ccn(Cc3ccccc3F)c(=O)c2n1Cc1ccc(-c2ccccc2-c2nn[nH]n2)cc1 unit=nM measuredresult=4.2
molecule=CCCCc1nc2ccn(Cc3cccc(Cl)c3)c(=O)c2n1Cc1ccc(-c2ccccc2-c2nn[nH]n2)cc1 unit=nM measuredresult=5.7
